IC50 listing for selected compounds.
Test system: A431 (wild-type EGFR)
Test: Test 2: Proliferation Test of Wild-type EGFR Cells (Cell Titer-Glo)
Type: cell-based
Settings: Homo sapiens, A-431; wild-type EGFR cells, 72 hours; read-out: IC50 value, Test 2
Form entry: value (µM) — number only.

Reference set, count: 4
# Item smiles, Observable, Quantity unit, Readout number
data = [
    ("C=CC(=O)Nc1cc(Nc2ncnc(-n3ccc4ncccc43)n2)c(OC)cc1N(C)CCN(C)C", "IC50", "µM", 0.579),
    ("C=CC(=O)Nc1cc(Nc2ncnc(-c3cnc4c(C(F)(F)F)cccn34)n2)c(OC)cc1N(C)CCN(C)C", "IC50", "µM", 0.758),
    ("C=CC(=O)Nc1cc(Nc2ncnc(-c3cnc4c(F)cccn34)n2)c(OC)cc1N(C)CCN(C)C", "IC50", "µM", 0.883),
    ("C=CC(=O)Nc1cc(Nc2ncnc(-n3nc(F)c4ccccc43)n2)c(OC)cc1N(C)CCN(C)C", "IC50", "µM", 0.941),
]

Now for the compound whose IC50 we want.
In: // Input: C=CC(=O)Nc1cc(Nc2ncnc(-c3cnc4c(C)cccn34)n2)c(OC)cc1N(C)CCN(C)C . Output its IC50 only.
Out: 0.718

* * *

Target: L858R/T790M EGFR (double mutant) (Homo sapiens, UniProt P00533, L858R/T790M)
Construct: The detection of phosphorylated p-EGFR of endogenous cells in cell lysate
Sequence (P00533 25-1210 T790M/L858R): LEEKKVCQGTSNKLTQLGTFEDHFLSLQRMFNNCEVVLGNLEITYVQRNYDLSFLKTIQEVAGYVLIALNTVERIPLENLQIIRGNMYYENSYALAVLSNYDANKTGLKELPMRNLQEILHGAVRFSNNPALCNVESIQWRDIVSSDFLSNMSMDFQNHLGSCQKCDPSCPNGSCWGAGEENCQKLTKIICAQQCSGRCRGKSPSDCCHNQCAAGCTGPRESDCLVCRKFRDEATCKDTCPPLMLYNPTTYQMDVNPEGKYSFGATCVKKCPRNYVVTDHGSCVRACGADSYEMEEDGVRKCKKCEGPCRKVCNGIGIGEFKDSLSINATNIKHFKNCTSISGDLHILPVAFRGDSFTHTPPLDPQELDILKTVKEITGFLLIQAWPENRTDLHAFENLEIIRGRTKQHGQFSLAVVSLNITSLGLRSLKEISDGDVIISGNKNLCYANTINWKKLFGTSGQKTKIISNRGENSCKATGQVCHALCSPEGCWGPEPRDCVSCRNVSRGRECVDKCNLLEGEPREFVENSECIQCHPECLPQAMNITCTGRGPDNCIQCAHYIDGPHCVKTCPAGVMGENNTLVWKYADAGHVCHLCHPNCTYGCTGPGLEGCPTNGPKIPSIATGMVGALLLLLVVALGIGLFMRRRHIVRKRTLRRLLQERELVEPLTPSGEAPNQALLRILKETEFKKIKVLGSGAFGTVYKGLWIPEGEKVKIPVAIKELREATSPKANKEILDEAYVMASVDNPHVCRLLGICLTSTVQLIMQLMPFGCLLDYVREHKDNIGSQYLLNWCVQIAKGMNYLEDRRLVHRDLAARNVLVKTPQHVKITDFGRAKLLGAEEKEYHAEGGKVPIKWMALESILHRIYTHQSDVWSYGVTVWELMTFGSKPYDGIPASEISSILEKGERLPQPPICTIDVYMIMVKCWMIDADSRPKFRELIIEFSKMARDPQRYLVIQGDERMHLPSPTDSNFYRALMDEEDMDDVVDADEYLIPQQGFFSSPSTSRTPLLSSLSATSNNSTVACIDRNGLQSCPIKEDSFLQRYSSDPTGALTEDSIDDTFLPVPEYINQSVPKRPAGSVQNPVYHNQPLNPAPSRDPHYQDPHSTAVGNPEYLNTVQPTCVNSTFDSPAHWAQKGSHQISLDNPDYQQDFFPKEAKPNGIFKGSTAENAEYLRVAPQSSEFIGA
Test: Test 1: Phosphorylation Test of L858R/T790M EGFR (double mutant) Cells (phospho-EGFR ELISA)
Details: NCI-H1975 cells, p-EGFR in cell lysate, compound incubation 2 hours
pIC50 listing for selected molecules.
Expect pIC50 as a plain number equal to -log10 of the molar concentration.

Reference set, count: 4
# Item smiles, Readout number
data = [
    ("C=CC(=O)Nc1cc(Nc2ncnc(N3CC(C)(C)c4ncccc43)n2)c(OC)cc1N(C)CCN(C)C", 7.95),
    ("C=CC(=O)Nc1cc(Nc2ncnc(-n3ccc4ncccc43)n2)c(OC)cc1N(C)CCN(C)C", 7.82),
    ("C=CC(=O)Nc1cc(Nc2ncnc(-c3cnc4c(F)cccn34)n2)c(OC)cc1N(C)CCN(C)C", 7.93),
    ("C=CC(=O)Nc1cc(Nc2ncnc(-c3cnc4c(C)cccn34)n2)c(OC)cc1N(C)CCN(C)C", 7.92),
]

In: // Input: C=CC(=O)Nc1cc(Nc2ncnc(-n3nc(F)c4ccccc43)n2)c(OC)cc1N(C)CCN(C)C . Output its pIC50 only.
Out: 7.97

In: // Input: C=CC(=O)Nc1cc(Nc2ncnc(-c3cnc4c(C(F)(F)F)cccn34)n2)c(OC)cc1N(C)CCN(C)C . Output its pIC50 only.
Out: 7.94

meta.source: patent EP3705478B1
